experimental.system: T1, T cell receptor (TCR) Vγ9 (TRGV9) (human, UniProt Q99603 21-122); further: unit not given here
T1 chain (looked up): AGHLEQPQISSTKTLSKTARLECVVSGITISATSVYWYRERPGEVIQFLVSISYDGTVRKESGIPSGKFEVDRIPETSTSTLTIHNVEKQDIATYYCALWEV
assay.overview: cell-based or functional assay
# IL6, Luminex (supernatant) annotations
assay.endpoint: IL6, Luminex (supernatant)

binder="VG9B127 (antibody, human IgG1, kappa, V domains shown) VH: QVQLVESGGGLVKPGGSLRLSCTASGFTFGAYTMNWVRQAPGKGLEWVSSISSSSSYIDFAESVKGRFTISRDNAKNSLYLQMISLRAEDTAVYYCARDGDIVSTIRGSFDYWGQGALVTVSS VL: EIVMTQSPLSLPVTPGEPASISCRSSQSLLDSDDGNTYLDWYLQKPGQSPQLLIYTLSYRASGVPDRFSGSGSGTDFTLKISRVEAEDVGIYYCMQRIEFPITFGQGTKVEIKR" assay_endpoint="IL6, Luminex (supernatant)" experimental_value=348
binder="VG9B384 (antibody, human IgG1, lambda, V domains shown) VH: QVQLQESGPALVKPTQTLTLTCTFSGFSLSSSGMCVSWIRQPPGKALEWLTLIDWFDDKYYSTSLKTRLTISKDTSKNQVVLTMTNMDPVDTATYYCARIRGTGAYYYGLDVWGQGTMVTVSS VL: SYELMQPPSVSVSPGQTASITCSGNELGDKYASWYQQQPGQSPVLVIYQDNKRPSGIPERFSGSNSGNTATLTISGTQAMDEADYYCQAWDSSKVVFGGGTKLTVLG" assay_endpoint="IL6, Luminex (supernatant)" experimental_value=610
binder="VG9B36 (antibody, human IgG1, kappa, V domains shown) VH: QVQLVESGGGLVKPGGSLRLSCASSGFTFSSYGMYWVRQAPGKGLEWVSSISTGSSYIYYADSVKGRFTISRDNAKNSLYLQMNSLRAEDTAVYYCARDKGLAVTGYIMDVWGQGTTVTVSS VL: EIVLTQSPSSLSASVGDRVTITCQASQDISNYLNWYQQKPGKAPKLLIYDASNLETGVPSRFSGSGSGTDFTFTISSLQPEDIAIYYCQQYDNLPMYTFGQGTKVEIKR" assay_endpoint="IL6, Luminex (supernatant)" experimental_value=607
